- measured-on: human serotonin transporter (SERT) (Homo sapiens (Human))
- Sequence (P31645 whole entry): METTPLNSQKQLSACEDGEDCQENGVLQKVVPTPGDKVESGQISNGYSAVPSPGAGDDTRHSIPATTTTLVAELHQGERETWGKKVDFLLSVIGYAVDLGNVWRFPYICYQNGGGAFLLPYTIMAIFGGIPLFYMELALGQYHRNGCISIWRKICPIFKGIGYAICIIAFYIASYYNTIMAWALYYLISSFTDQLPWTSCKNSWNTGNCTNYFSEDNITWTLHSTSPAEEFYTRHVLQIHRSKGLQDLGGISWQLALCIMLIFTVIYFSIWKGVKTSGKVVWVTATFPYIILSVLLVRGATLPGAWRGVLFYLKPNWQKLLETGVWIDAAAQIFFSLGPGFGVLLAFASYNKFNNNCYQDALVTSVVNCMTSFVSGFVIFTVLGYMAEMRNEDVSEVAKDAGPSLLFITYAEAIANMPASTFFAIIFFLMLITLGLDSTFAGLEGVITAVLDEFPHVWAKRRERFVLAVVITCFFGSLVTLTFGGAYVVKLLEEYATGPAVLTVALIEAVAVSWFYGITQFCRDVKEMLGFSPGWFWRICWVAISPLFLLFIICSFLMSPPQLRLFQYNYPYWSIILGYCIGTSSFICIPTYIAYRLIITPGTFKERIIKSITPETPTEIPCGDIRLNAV
- protocol: Scintillation Proximity Assay (SPA) competition binding, human SERT
- measurement-parameters: recombinant hSERT-CHO membranes, [3H]citalopram
- Text: Measure of Affinity to the Human Transporters DAT, NET and SERT Affinity is expressed in terms of inhibition constant (Ki) of the compounds of the invention for DAT, NET and SERT, and it is typically calculated from the IC50 values obtained in competition experiments using Cheng and Prusoff equation (Cheng and Prusoff, Biochem. Pharmacol. 22:3099, 1973). […]
readout-kind: pIC50 SERT
Numbers only.

                                   compound                               measured_on  result_value
0  Cc1cc(Oc2cccc(C#N)c2)nc(N2CCC3(CC2)CNCCO3)n1.Cl  human serotonin transporter (SERT) (Homo sapiens (Human))          6.11

The following compounds each have a reported value; give each one's pIC50 SERT.
1. OC1CNCCC12CCN(c1nc(Oc3cccc(F)c3)cc(C(F)(F)F)n1)C2 (stereo not drawn) [Example 97]
2. Fc1cccc(Oc2cc(F)c(F)cc2N2CCC3(CC2)CNCCO3)c1
3. Cc1cc(Oc2cccc(C(F)(F)F)c2)nc(N2CCC3(CC2)CNCCO3)n1.Cl
4. Cc1cccc(Oc2cc(C)nc(N3CCC4(CC3)CNCCO4)n2)c1.Cl
5. Fc1cccc(Oc2cc(F)c(F)c(N3CCC4(CC3)CNCCO4)c2)c1
6. c1ccc(Oc2cccc(N3CCC4(CC3)CNCCO4)c2)cc1

[5.34, 6.44, 5.58, 4.83, 6.33, 6.12]

The following compounds each have a reported value; give each one's pIC50 SERT.
1. COc1cc(Cc2ccccc2)nc(N2CCC3(CC2)CNCCO3)n1.Cl
2. c1ccc(Cc2cccc(N3CCC4(CC3)CNCCO4)c2)cc1

[4.89, 5.73]

* * *

- measured-on: human serotonin transporter (SERT) (Homo sapiens (Human))
- protocol: Scintillation Proximity Assay (SPA) competition binding, human SERT
- measurement-parameters: recombinant hSERT-CHO membranes, [3H]citalopram
- From the text: Measure of Affinity to the Human Transporters DAT, NET and SERT Affinity is expressed in terms of inhibition constant (Ki) of the compounds of the invention for DAT, NET and SERT, and it is typically calculated from the IC50 values obtained in competition experiments using Cheng and Prusoff equation (Cheng and Prusoff, Biochem. Pharmacol. 22:3099, 1973). […]
readout-kind: pIC50 SERT

Examples from the recorded data:
>>> df
                                   compound                               measured_on  readout_kind  result_value
0  Fc1cccc(Oc2cc(F)c(F)cc2N2CCC3(CCNC3)CC2)c1  human serotonin transporter (SERT) (Homo sapiens (Human))    pIC50 SERT          7.29
1  COc1cc(Oc2cccc(F)c2)nc(N2CCC3(CC2)CNCCO3)n1.Cl  human serotonin transporter (SERT) (Homo sapiens (Human))    pIC50 SERT          5.27

The following compounds each have a reported value; give each one's pIC50 SERT.
1. Fc1cccc(Oc2cc(F)cc(N3CCC4(CC3)CNCCO4)c2)c1
2. Cl.N#Cc1c(C(F)(F)F)cc(Oc2cccc(F)c2)nc1N1CCC2(CC1)CNCCO2

1: 7.10; 2: 5.35

* * *

- measured-on: UniProtKB Q12809
- Sequence (Q12809 whole entry): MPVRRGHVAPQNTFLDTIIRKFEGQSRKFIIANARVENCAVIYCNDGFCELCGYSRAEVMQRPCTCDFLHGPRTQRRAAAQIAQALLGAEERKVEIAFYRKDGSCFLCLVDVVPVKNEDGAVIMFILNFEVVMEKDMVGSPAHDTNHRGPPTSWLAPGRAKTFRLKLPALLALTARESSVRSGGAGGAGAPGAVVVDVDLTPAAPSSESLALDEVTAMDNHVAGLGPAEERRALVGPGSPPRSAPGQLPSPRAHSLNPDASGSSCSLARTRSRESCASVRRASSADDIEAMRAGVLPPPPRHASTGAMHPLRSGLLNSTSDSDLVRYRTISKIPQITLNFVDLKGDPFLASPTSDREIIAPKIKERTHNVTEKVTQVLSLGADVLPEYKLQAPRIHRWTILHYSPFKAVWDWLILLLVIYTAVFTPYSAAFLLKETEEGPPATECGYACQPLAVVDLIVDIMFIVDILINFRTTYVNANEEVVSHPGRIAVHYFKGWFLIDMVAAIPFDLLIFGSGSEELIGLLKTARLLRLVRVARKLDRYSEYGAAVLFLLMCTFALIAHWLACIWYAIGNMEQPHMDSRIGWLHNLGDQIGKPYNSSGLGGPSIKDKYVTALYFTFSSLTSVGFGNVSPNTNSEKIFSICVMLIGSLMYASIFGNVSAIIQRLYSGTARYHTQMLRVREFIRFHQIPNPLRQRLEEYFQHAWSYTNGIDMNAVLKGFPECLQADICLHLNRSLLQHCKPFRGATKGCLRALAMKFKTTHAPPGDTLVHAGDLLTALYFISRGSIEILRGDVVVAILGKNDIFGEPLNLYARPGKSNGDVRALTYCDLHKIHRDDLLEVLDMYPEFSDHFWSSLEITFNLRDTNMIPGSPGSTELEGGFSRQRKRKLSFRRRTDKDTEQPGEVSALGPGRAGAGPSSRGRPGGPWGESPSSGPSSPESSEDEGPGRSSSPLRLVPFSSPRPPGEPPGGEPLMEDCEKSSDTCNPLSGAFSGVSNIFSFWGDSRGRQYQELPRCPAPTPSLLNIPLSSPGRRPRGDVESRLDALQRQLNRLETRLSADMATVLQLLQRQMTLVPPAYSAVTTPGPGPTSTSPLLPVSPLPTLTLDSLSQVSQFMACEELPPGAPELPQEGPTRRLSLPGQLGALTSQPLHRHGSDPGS
- protocol: hERG tail current recording, Rapid ICE automated patch-clamp
- measurement-parameters: HEK293 cells stably transfected with hERG
readout-kind: IC50

Look up IC50 for this compound: `O=C1COC2(CCN(c3nc(Oc4cccc(F)c4)cc(C(F)(F)F)n3)CC2)CN1`
> 10 µM

* * *

Provide the reported pIC50 DAT of each item.
- measured-on: human dopamine transporter (DAT) (Homo sapiens (Human), UniProt Q01959)
- Sequence (Q01959 whole entry): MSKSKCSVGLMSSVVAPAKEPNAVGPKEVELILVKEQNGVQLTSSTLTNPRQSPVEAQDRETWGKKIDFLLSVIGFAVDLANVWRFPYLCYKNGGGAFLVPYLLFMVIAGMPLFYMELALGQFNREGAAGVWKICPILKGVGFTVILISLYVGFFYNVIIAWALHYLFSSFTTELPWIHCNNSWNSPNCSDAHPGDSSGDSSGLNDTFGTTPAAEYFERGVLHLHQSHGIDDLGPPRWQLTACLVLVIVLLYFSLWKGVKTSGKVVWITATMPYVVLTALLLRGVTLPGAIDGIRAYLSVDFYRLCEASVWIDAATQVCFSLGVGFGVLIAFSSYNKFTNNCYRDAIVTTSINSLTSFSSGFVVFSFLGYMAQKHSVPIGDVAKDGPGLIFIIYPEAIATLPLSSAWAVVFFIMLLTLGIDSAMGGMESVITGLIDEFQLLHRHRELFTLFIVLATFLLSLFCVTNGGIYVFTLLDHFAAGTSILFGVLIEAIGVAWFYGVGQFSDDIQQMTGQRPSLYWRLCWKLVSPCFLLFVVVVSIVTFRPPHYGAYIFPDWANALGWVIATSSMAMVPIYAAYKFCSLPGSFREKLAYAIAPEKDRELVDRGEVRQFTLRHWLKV
- protocol: Scintillation Proximity Assay (SPA) competition binding, human DAT
- measurement-parameters: recombinant hDAT-CHO membranes, [3H]WIN-35,428
Answers are plain numbers.

Examples from the recorded data:
>>> df
                                   compound  result_value
0  Cl.N#Cc1c(C(F)(F)F)cc(N2CCC3(CC2)CNCCO3)nc1Oc1cccc(F)c1          6.68
1  Fc1cccc(Oc2ccc(F)c(N3CCC4(CC3)CNCCO4)c2)c1          7.56
2  CN1CCCNCC12CCN(c1nc(Oc3cccc(F)c3)cc(C(F)(F)F)n1)CC2          8.08
3  Fc1cccc(Oc2cc(F)cc(N3CCC4(CC3)CNCCO4)c2)c1          8.25
4   Fc1cccc(Oc2cccc(N3CCC4(CC3)CNCCO4)c2)c1          7.54

The following compounds each have a reported value; give each one's pIC50 DAT.
1. Fc1cccc(Oc2cc(F)c(F)cc2N2CCC3(CNCCO3)C2)c1 (stereo not drawn)
2. Cc1cc(Oc2ccccc2)nc(N2CCC3(CC2)CNCCO3)n1.Cl
3. c1ccc(Cc2cccc(N3CCC4(CC3)CNCCO4)c2)cc1
4. CSc1cc(N2CCC3(CC2)CNCCO3)nc(Oc2cccc(F)c2)n1.Cl

1. 7.24
2. 8.01
3. 6.42
4. 6.38

* * *

- measured-on: human dopamine transporter (DAT) (Homo sapiens (Human), UniProt Q01959)
- protocol: Scintillation Proximity Assay (SPA) competition binding, human DAT
- measurement-parameters: recombinant hDAT-CHO membranes, [3H]WIN-35,428
- Procedure: Measure of Affinity to the Human Transporters DAT, NET and SERT In the context of the present invention pKi values (corresponding to the antilogarithm of Ki) are used instead of Ki; pKi are only estimated to be accurate to about 0.3 log unit. […] The affinity of the compounds of the invention to the human DAT or NET or SERT transporters is assessed by using the [^3H]WIN-35,428 or [^3H]nisoxetine or [^3H]citalopram binding assays in recombinant human DAT, NET and SERT membranes with the SPA technology. […]
Please mark y if the recorded pIC50 DAT is equal to or greater than 8, and n if it falls below.

Take a look at these entries with their results.
In [3]: df
Out[3]:
                                   compound  category_label
0  Fc1cccc(Oc2cc(F)cc(N3CCC4(CCNC4)CC3)c2)c1 [Example 92]               y
1  CN1CCNCC12CCN(c1nc(Oc3cccc(F)c3)cc(C(F)(F)F)n1)CC2 [Example 74]               y
2  COc1cc(Cc2ccccc2)nc(N2CCC3(CC2)CNCCO3)n1.Cl [Example 61]               n
3  Fc1cccc(Oc2cc(F)c(F)cc2N2CCC3(CCNCC34OCCO4)C2)c1 (stereo not shown) [Example 93]               y
4  Cc1cccc(Oc2cc(C)nc(N3CCC4(CC3)CNCCO4)n2)c1.Cl [Example 45]               n
5  Cl.Fc1cccc(Oc2cc(C(F)(F)F)nc(N3CCC4(CC3)CNCCO4)n2)c1 [Example 56]               y
6  Cc1cc(Oc2cccnc2)nc(N2CCC3(CC2)CNCCO3)n1.Cl [Example 53]               n
7  Fc1cccc(Oc2cccc(N3CCC4(CC3)CNCCO4)c2F)c1 [Example 19]               y
8  N#Cc1ccc(Oc2ccccc2)c(N2CCC3(CC2)CNCCO3)c1 [Example 5]               n
9  Fc1cccc(Oc2cc(C(F)(F)F)nc(N3CCC4(CNCCC45OCCO5)C3)n2)c1 (stereo not shown) [Example 87]               y

Determine whether measured pIC50 DAT meets or exceeds 8 for Cc1cc(Oc2cccc(OC(F)(F)F)c2)nc(N2CCC3(CC2)CNCCO3)n1.Cl [Example 47]
n

* * *

- measured-on: UniProt P31645
- protocol: Scintillation Proximity Assay (SPA) competition binding, human SERT
- measurement-parameters: recombinant hSERT-CHO membranes, [3H]citalopram
pIC50: −log10 of the molar value.
Provide the reported pIC50 of each item.

In [3]: df
Out[3]:
                                   compound  readout_kind  result_value
0  CN1CCCNC(=O)C12CCN(c1nc(Oc3cccc(F)c3)cc(C(F)(F)F)n1)CC2         pIC50        < 4.00
1  O[C@H]1CNCC[C@@]12CCN(c1nc(Oc3cccc(F)c3)cc(C(F)(F)F)n1)C2 (single isomer, unassigned) [Example 99]         pIC50          4.95

Consider the additional compound presented here.
Look up pIC50 for this compound: COc1ccccc1Oc1cc(C)nc(N2CCC3(CC2)CNCCO3)n1.Cl [Example 52, hydrochloride]
< 4.00
